# System: MOLT-4 leukemia
# Measurement notes: NCI-60 one-dose screen, 48 h (100 = growth as untreated, 0 = no growth, -100 = all killed)
# Applied conditions: 10 µM unless noted
About 83,000 compounds went through this panel and 20% of them were active in at least one assay; those are over-represented in the sample as a whole.
Listing of entries alongside the reported growth.

Compound: Cc1ccc2nc(NC(=O)CSC(=S)N3CCN(c4ccccc4)CC3)sc2c1
growth [%]: 111
//
Compound: Nc1ccc(-c2nc3cc(Oc4ccc(Oc5ccc6[nH]c(-c7ccc(N)cc7)nc6c5)cc4)ccc3[nH]2)cc1
growth [%]: 96.8
//
Compound: O=S1(=O)CCN(Cc2ccccc2)CC1
growth [%]: 105
//
Compound: O=C(CCc1nnc2sc(COc3ccccc3)nn12)c1nc2ncccc2[nH]1
growth [%]: 113
//
Compound: O=c1c2cccc(F)c2sc2c(N3CCNCC3)nc3ccccc3c12
growth [%]: -18.8
//
Compound: N#Cc1c(N)nc2c(c1N)C(c1ccc(F)cc1)c1ccc(N)cc1O2 (configuration not stated)
growth [%]: 96.4
//
Compound: COc1ccc(C(O)(CCC(C)C)C(CN2CCOCC2)c2ccc(Cl)cc2)cc1 (configuration not stated)
growth [%]: 34.2
//
Compound: O=c1cc(NC2CCN(CCCc3ccccc3)CC2)c2cc(Cl)ccc2o1
growth [%]: 1.27
//
Compound: CC/C(=C(\CC)c1ccc(OCC[N+](C)(C)C)cc1)c1ccc(OC)cc1
growth [%]: 65
//
Compound: COc1cc(C2C3=C(COC3=O)N(CCO)c3cc4c(cc32)CCC4)cc(OC)c1O (configuration not stated)
growth [%]: 20.6
//
Compound: CNCCNc1nc2ccccc2c2c(=O)c3cc(F)ccc3sc12
growth [%]: -18.9
//
Compound: CCOC(=O)c1cc2c(n1Cc1cccc(OC)c1)-c1oncc1CCC2
growth [%]: 35.8
//
Compound: Cc1ccc2cccc(Oc3ccc(Nc4ncnc5onc(-c6ccccc6)c45)cc3)c2n1
growth [%]: 72.2
//
Compound: O=c1oc2ccc(Cl)cc2c(=O)n1-c1ccc(F)cc1F
growth [%]: 9.73
//
Compound: CN(C)c1ccc(N=Cc2ccc(N3CCOCC3)cc2)cc1
growth [%]: 65.2
//
Compound: CCOc1ccc(-c2nonc2NC(=O)c2cccc(C)c2)cc1OCC
growth [%]: 4.22
//
Compound: CNCCNc1nc2ccccc2c2c(=O)c3cccc(C)c3sc12
growth [%]: -29.5
//
Compound: CCCCc1ccc(NS(=O)(=O)c2cc3c4c(c2)CCN4C(=O)CC3)cc1
growth [%]: 1.64
//
Compound: Nc1nc(-c2ccccc2Br)nn1-c1nc2ccccc2s1
growth [%]: 88.3
//
Compound: O=C(CN1C=NC2C(N3CCOCC3)=NC=NC21)c1ccc(Br)cc1 (configuration not stated)
growth [%]: 105
//
Compound: O=c1c(-c2nc3ccccc3[nH]2)cc2ccccc2n1Cc1cn(Cc2ccc(F)cc2)nn1
growth [%]: 19.9
//
Compound: CNCCNc1nc2ccccc2c2c(=O)c3cc(OC)ccc3sc12
growth [%]: -28.8

====

# Tested on: PC-3 prostate
# Measurement notes: NCI-60 one-dose screen, 48 h (100 = growth as untreated, 0 = no growth, -100 = all killed)
# Applied conditions: 10 µM unless noted
Compounds without any hit were thinned out: in the full panel of roughly 83,000, 20% have a hit.
The label depends only on growth: Met if it is at least 30%, Not met if it is smaller.

Compound: CN1CCN(Cc2ccc(C(=O)Nc3cncc(C#Cc4cnc(N)c5ccccc45)c3)cc2C(F)(F)F)CC1
Class label: Not met
//
Compound: O=c1[nH]nnc2c1ncn2C1OC(CO)C(O)C1O (stereo not given)
Class label: Met
//
Compound: O=c1oc2ccc(F)cc2c(=O)n1-c1ccc(F)cc1F
Class label: Not met
//
Compound: COc1ccc(/C=C2\CCC/C(=C\c3ccc(OC)c(OC)c3)C2=O)cc1OC
Class label: Met
//
Compound: CC(C)CCOc1ccc(-c2n[nH]c(C(F)(F)F)c2-c2cncc(C#N)c2)c(O)c1
Class label: Not met
//
Compound: O=C(Nc1ccc(Br)cc1F)c1cc(Cl)ccc1O
Class label: Not met
//
Compound: Cc1ccc(N=NC2C(=O)N(c3ccc(Cl)cc3)N(c3ccc(Cl)cc3)C2=O)cc1
Class label: Met
//
Compound: CNCCNc1nc2ccccc2c2c(=O)c3cc(F)ccc3sc12
Class label: Met
//
Compound: CC(=O)c1ccc(NC(=O)Nc2ccc(S(=O)(=O)Nc3ccc(Cl)nn3)cc2)cc1
Class label: Met
//
Compound: O=C(Nc1ccc(I)cc1F)c1cc(Br)ccc1O
Class label: Not met
